Give measured pIC50 for each item. Keep answers brief.
System: NCI-H1563;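 note: growth inhibition of human NCI-H1563 cells, read out with a cell viability assay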
ASSAY_PROCEDURE: cells
Type: functional, cell-based, Homo sapiens
STUDY_CONDITIONS: Homo sapiens, NCI-H1563
Description: SANGER: Inhibition of human NCI-H1563 cell growth in a cell viability assay.
pIC50: −log10 of the molar value.

Dear colleague, I am looking for the recorded pIC50 of the following molecule: O=C(NOCC1CC1)c1ccc(F)c(F)c1Nc1ccc(I)cc1Cl
< 5.00

Dear colleague, I am looking for the recorded pIC50 of the following molecule: O=C1N=C(NCc2cccs2)S/C1=C\c1ccc2ncccc2c1
< 5.30

Dear colleague, I am looking for the recorded pIC50 of the following molecule: O=c1cc(-c2cccc3c2Sc2ccccc2S3)oc(N2CCOCC2)c1
< 5.00

Dear colleague, I am looking for the recorded pIC50 of the following molecule: CC(=O)O[C@@H]1[C@@H](OC(C)=O)[C@@H](O)[C@H](Oc2c(-c3ccc(O)cc3)oc3cc(O)cc(O)c3c2=O)O[C@H]1C
< 5.00

Dear colleague, I am looking for the recorded pIC50 of the following molecule: Cn1cncc1[C@@](N)(c1ccc(Cl)cc1)c1ccc2c(c1)c(-c1cccc(Cl)c1)cc(=O)n2C
< 4.80

Dear colleague, I am looking for the recorded pIC50 of the following molecule: CCC1=C[C@@H]2CN(C1)Cc1c([nH]c3ccccc13)[C@@](C(=O)OC)(c1cc3c(cc1OC)N(C)[C@H]1[C@@](O)(C(=O)OC)[C@H](OC(C)=O)[C@]4(CC)C=CCN5CC[C@]31[C@@H]54)C2
7.89

###

Give measured IC50 for each item. Keep answers brief.
Tested on: NCI-H2030;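 note: growth inhibition of human NCI-H2030 cells, read out by a cell viability assay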
ASSAY_PROCEDURE: cells
Format: functional, cell-based, Homo sapiens
STUDY_CONDITIONS: Homo sapiens, NCI-H2030
Description: SANGER: Inhibition of human NCI-H2030 cell growth in a cell viability assay.

Dear colleague, I am looking for the recorded IC50 of the following molecule: CC(=O)O[C@@]12CO[C@@H]1C[C@H](O)[C@@]1(C)C(=O)[C@H](O)C3=C(C)[C@@H](OC(=O)[C@H](O)[C@@H](NC(=O)OC(C)(C)C)c4ccccc4)C[C@@](O)([C@@H](OC(=O)c4ccccc4)[C@H]21)C3(C)C
> 10 nM

Dear colleague, I am looking for the recorded IC50 of the following molecule: CCOc1nc(NC(=O)Cc2cc(OC)ccc2OC)cc(N)c1C#N
> 10000 nM

Dear colleague, I am looking for the recorded IC50 of the following molecule: COc1cc(F)c(F)c(Nc2ccc(I)cc2F)c1NS(=O)(=O)C1(CC(O)CO)CC1 (stereo not given)
> 5000 nM

Dear colleague, I am looking for the recorded IC50 of the following molecule: Cc1cc([C@@H](C)Nc2ccccc2C(=O)O)c2nc(N3CCOCC3)cc(=O)n2c1
2900 nM

Dear colleague, I am looking for the recorded IC50 of the following molecule: C[C@]1(O)C[C@@H](c2nc(-c3ccc4ccc(-c5ccccc5)nc4c3)c3c(N)nccn32)C1
> 2560 nM

Dear colleague, I am looking for the recorded IC50 of the following molecule: CN(Cc1cnc2nc(N)nc(N)c2n1)c1ccc(C(=O)N[C@@H](CCC(=O)O)C(=O)O)cc1 [METHOTREXATE]
> 200 nM

Dear colleague, I am looking for the recorded IC50 of the following molecule: CN(c1ncccc1CNc1nc(Nc2ccc3c(c2)CC(=O)N3)ncc1C(F)(F)F)S(C)(=O)=O
> 2560 nM

Dear colleague, I am looking for the recorded IC50 of the following molecule: C=CCc1cccc(/C=N/NC(=O)CN2CCN(Cc3ccccc3)CC2)c1O
> 2560 nM

Dear colleague, I am looking for the recorded IC50 of the following molecule: O=C(c1cc(Cc2n[nH]c(=O)c3ccccc23)ccc1F)N1CCN(C(=O)C2CC2)CC1
> 5000 nM

Dear colleague, I am looking for the recorded IC50 of the following molecule: COc1cc([C@@H]2c3cc4c(cc3[C@@H](O[C@@H]3O[C@@H]5CO[C@@H](C)O[C@H]5[C@H](O)[C@H]3O)[C@H]3COC(=O)[C@H]23)OCO4)cc(OC)c1O [ETOPOSIDE]
230 nM
